B1: Caulobacter ParB omega fusion; a variant is named by its letters at X, in order, B8GW30 (parent)
chain: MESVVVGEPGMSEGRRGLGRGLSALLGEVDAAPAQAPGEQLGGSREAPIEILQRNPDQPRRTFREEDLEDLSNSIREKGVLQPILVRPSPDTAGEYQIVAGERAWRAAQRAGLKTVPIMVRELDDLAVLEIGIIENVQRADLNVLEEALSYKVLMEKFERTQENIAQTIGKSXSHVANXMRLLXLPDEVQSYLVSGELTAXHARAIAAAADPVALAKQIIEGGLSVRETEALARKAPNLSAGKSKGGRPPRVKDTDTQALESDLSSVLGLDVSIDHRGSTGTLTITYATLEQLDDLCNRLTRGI

- Variants of: B1
- Measurement protocol: one-hybrid fitness for binding NBS DNA (the Noc-binding site; scaled: cognate 1, non-cognate 0); higher = stronger binding
- Assay conditions: with NBS DNA site
Over roughly 81,000 sequences, “one-hybrid fitness for binding NBS DNA” has its median near -0.1; the highest 2% begin near 0.36. Shown is part of a subset that was picked to be rich in the highest values.
Measurement name: one-hybrid fitness for binding NBS DNA

Answered examples (2):
{"Mutation": "HLNK", "one-hybrid fitness for binding NBS DNA": "≤ 0.2"}
{"Mutation": "MNRA", "one-hybrid fitness for binding NBS DNA": "≤ 0.2"}

For the variant QQAN , report one-hybrid fitness for binding NBS DNA.
≤ 0.2

For the variant RRTD , report one-hybrid fitness for binding NBS DNA.
≤ 0.2

For the variant RKHS , report one-hybrid fitness for binding NBS DNA.
0.624

For the variant QPKV , report one-hybrid fitness for binding NBS DNA.
≤ 0.2

For the variant SYHR , report one-hybrid fitness for binding NBS DNA.
≤ 0.2

For the variant HPSA , report one-hybrid fitness for binding NBS DNA.
≤ 0.2

For the variant PQRS , report one-hybrid fitness for binding NBS DNA.
≤ 0.2

For the variant RCKD , report one-hybrid fitness for binding NBS DNA.
≤ 0.2

For the variant QPKQ , report one-hybrid fitness for binding NBS DNA.
≤ 0.2

For the variant RSTY , report one-hybrid fitness for binding NBS DNA.
≤ 0.2

For the variant RAHN , report one-hybrid fitness for binding NBS DNA.
≤ 0.2

For the variant QAQV , report one-hybrid fitness for binding NBS DNA.
≤ 0.2
